Data provenance: patent US9663513B2

# TARGET SYSTEM: human PDE10A2 (Homo sapiens (Human), UniProt Q9Y233)
# Sequence (Q9Y233 267-1055): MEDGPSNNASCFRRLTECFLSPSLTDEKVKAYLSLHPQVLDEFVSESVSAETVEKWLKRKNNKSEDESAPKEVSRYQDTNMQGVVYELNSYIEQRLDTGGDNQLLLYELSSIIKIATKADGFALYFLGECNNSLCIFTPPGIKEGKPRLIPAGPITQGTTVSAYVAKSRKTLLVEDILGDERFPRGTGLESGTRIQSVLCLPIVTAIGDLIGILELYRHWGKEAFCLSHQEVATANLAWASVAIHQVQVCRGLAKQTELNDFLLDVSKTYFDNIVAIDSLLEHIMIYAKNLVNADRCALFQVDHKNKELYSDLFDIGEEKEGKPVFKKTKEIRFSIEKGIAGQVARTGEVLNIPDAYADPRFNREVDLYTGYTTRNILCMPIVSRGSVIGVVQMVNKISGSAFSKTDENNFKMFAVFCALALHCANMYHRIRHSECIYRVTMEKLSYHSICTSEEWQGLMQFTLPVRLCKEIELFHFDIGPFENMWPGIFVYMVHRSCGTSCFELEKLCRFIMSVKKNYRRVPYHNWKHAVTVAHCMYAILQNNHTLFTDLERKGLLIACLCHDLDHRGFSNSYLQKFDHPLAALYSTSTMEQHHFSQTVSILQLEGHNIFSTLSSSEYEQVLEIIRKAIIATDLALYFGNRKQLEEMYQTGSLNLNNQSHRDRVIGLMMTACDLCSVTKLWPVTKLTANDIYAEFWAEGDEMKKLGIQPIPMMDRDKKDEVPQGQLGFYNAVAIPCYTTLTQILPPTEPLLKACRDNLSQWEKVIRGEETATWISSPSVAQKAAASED
pKi: −log10 of the molar value.
Label Satisfied when pKi is at or above 8; anything below gets Not satisfied.

The examples below pair each entry with its known result.
CCc1ccc([C@@H]2C[C@@H]2COc2nc(C)ncc2[C@H]2CC[C@@H](O)CC2)nc1 [Example 197]: Satisfied
Cc1ncc(-c2ccc(CO)cc2)c(OC[C@H]2C[C@@H]2c2ccc3ccccc3n2)n1 (single isomer, unassigned) [Example 39]: Satisfied
Cc1ccc([C@H]2C[C@@H]2COc2nc(C)ncc2C2CCC(=O)CC2)nc1 [Example 185]: Satisfied
COc1ccc(-c2cnc(C)nc2OC[C@H]2C[C@@H]2c2ccc3ccccc3n2)cc1 (single isomer, unassigned) [Example 28]: Satisfied
COc1ccc([C@H]2C[C@@H]2COc2nc(C)ncc2C2(F)CCCCC2)nc1 [Example 211]: Not satisfied

Next, consider the following compound.
Request: Evaluate Cc1ncc([C@H]2CC[C@H](O)CC2)c(OC[C@H]2C[C@@H]2c2ccccn2)n1 [Example 199] : pKi at minimum 8?
Result: Satisfied
